Recorded pKd for the following binders
- assayed-target: T1, human TREM2 expressed on cells (human, UniProt Q9NZC2 19-230)
- T1 construct: BW5147.G.1.4 cells stably expressing human TREM2 together with Dap12, or endogenous TREM2 of primary human myeloid cells; also called huT2 BW; hTREM2 expressing cell line
- T1 sequence: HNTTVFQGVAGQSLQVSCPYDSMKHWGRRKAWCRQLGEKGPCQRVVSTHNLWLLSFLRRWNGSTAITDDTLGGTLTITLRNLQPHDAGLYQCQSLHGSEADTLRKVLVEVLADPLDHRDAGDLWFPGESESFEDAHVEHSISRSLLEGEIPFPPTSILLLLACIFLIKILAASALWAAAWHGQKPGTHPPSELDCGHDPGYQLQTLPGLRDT
- measurement-notes: FACS, hTREM2 BW cells
The meaning of pKd here: minus log10 of the concentration in molar units.

# example entries with known answers
binder: AL2p huIgG1 (human mouse chimeric parental antibody) (antibody, V domains shown, Mouse variable region with human IgG1 Fc region; Fab and IgG formats under one id; also called chimeric parental AL2p antibody as huIgG1) VH: QVQLQQSGPELVKPGASLKISCKASGYAFSSSWMNWVKQRPGKGLEWIGRIYPGDGDTNYNGEFRVRATLTADTSSTTAYMQLSSLTSEDSAVYFCARLLRNQPGESYAMDYWGQGASVTVSS VL: DVVMTQTPLSLPVSLGDQASISCRSSQSLVHSNGYTYLHWYLQKPGQSPKLLIYKVSNRFSGVPDRFSGSGSGTDFTLKISRVEADDLGVYFCSQSTRVPYTFGGGTKLEIK
test-result: 8.88

binder: AL2p-37 (antibody, IgG1, V domains shown, Fab and IgG formats under one id; also called AL2p-37 huIgG1) VH: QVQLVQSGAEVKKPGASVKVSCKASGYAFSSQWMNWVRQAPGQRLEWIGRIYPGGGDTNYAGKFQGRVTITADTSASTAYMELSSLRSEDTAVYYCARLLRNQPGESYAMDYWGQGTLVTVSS VL: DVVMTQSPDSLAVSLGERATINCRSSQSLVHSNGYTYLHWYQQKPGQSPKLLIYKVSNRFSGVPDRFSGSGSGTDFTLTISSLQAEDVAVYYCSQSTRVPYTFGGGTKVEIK
test-result: 8.93

Indicate its recorded pKd; the binder in question is AL2p-61 huIgG1 (antibody, V domains shown) VH: QVQLVQSGAEVKKPGSSVKVSCKASGYAFSSQWMNWVRQAPGQGLEWMGRIYPGEGDTNYARKFQGRVTITADESTSTAYMELSSLRSEDTAVYYCARLLRNQPGESYAMDYWGQGTLVTVSS VL: GVVMTQTPLSLSVTPGQPASISCRSSQSLVHSNQYTYLHWYLQKPGQSPQLLIYKVSNRRSGVPDRFSGSGSGTDFTLKISRVEAEDVGVYYCSQSTRVPYTFGQGTKLEIKR 9.38
